target: T1, human SIRPα v5-Fc (SIRPα5 extracellular domain fused to human IGHG1_Fc) (human, UniProt P78324 31-373; P0DOX5 223-449 = IgG part); assay: BLI Octet, antigen-Fc on biosensor;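 also: antigen captured on the biosensor tip and then immersed in solutions of the test antibodies, which act as the analyte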
T1 construct: as m38; also called V5 (e.g. SIRPα5)
observation.type: koff (s⁻¹)
Report the figure in s⁻¹ without appending any unit label.

{"columns": ["binder", "koff [s⁻¹]"],
 "data": [
  ["SIRPAB-13 (antibody, human IgG1, kappa, V domains shown) VH: QVQLVQSGAEVKKPGASVKVSCKASGYTFHGYGISWVRQAPGQGLEWMGWISAYSGETNYAQKLQGRVTMTTDTSTSTAYMELRSLRSDDTAVYYCAREAGSSWYDFDLWGRGTLVTVSS VL: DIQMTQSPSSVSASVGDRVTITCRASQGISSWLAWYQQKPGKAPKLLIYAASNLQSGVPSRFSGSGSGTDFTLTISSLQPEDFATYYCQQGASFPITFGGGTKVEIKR", 0.00892],
  ["SIRPAB-7 (antibody, human IgG1, kappa, V domains shown) VH: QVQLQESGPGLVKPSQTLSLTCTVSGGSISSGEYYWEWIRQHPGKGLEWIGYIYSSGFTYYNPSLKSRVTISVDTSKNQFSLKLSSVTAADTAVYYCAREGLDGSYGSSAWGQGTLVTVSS VL: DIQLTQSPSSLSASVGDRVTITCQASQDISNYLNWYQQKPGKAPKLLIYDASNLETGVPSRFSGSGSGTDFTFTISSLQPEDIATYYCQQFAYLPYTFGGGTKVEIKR", 0.00143],
  ["SIRPAB-10 (antibody, human IgG1, kappa, V domains shown) VH: QVQLVQSGAEVKKPGASVKVSCKASGYTFTGYPISWVRQAPGQGLEWMGWIYAYGGNTNYAQKLQGRVTMTTDTSTSTAYMELRSLRSDDTAVYYCAREAGSSWYDFDLWGRGTLVTVSS VL: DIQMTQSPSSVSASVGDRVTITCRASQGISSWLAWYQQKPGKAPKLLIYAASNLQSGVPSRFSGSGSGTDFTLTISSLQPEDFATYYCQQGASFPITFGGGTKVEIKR", 0.00178]
]}

# next binder below
Data point: SIRPAB-9 (antibody, human IgG1, kappa, V domains shown) VH: QVQLVQSGAEVKKPGASVKVSCKASGYTFGGYGISWVRQAPGQGLEWMGWISAYGGETNYAQKLQGRVTMTTDTSTSTAYMELRSLRSDDTAVYYCAREAGSSWYDFDLWGRGTLVTVSS VL: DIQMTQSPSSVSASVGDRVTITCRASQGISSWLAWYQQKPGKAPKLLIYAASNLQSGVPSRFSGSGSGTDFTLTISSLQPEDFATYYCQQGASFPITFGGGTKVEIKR ; koff = 0.00462
